ASSAY_PROCEDURE: recombinant barcode read abundance after kanamycin selection (control-corrected) (log10(CPM+1)); higher = more efficient recombination; sequences stand for … in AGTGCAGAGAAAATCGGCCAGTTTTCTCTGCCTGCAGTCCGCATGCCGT…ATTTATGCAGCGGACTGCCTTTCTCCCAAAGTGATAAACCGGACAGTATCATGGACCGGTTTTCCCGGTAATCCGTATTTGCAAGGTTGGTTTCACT; site = the 11-nt target
Some sequences, each annotated with its measured recombinant barcode read abundance (log10).
MEASURED_ENDPOINT: recombinant barcode read abundance (log10)

SEQ_TEXT | ENDPOINT_RESULT
CGCGCCCGATGGGTTCTAACCTGTTGCGGAG [CGCGCCCCTCC_LTGcore_GA_RTGcore_CT] (site CGCGCCCCTCC) (LTG core: GA, RTG core: CT) | 0.217
CGCGCCCCTTGGGTTCTAACCTGTTGCGGAT [CGCGCCCCTCC_LTGcore_CT_RTGcore_AT] (site CGCGCCCCTCC) (LTG core: CT, RTG core: AT) | 0.243
GGGCGTGCTTGGGTTCTAACCTGTTGCCTAG [GGGCGTGCTAG_LTGcore_CT_RTGcore_CT] (site GGGCGTGCTAG) (LTG core: CT, RTG core: CT) | 1.41
CGAGCCCCGTGGGTTCTAACCTGTTGCTGAG [CGAGCCCCTCA_LTGcore_CG_RTGcore_CT] (site CGAGCCCCTCA) (LTG core: CG, RTG core: CT) | 0.587
TAGAGGGTGTGGGTTCTAACCTGTTGCGGAG [TAGAGGGCTCC_LTGcore_TG_RTGcore_CT] (site TAGAGGGCTCC) (LTG core: TG, RTG core: CT) | 0.173
AAACAGTACTGGGTTCTAACCTGTTGCCTAG [AAACAGTCTAG_LTGcore_AC_RTGcore_CT] (site AAACAGTCTAG) (LTG core: AC, RTG core: CT) | 0.0247
CATATTAATTGGGTTCTAACCTGTTGCCTAG [CATATTACTAG_LTGcore_AT_RTGcore_CT] (site CATATTACTAG) (LTG core: AT, RTG core: CT) | 0.195
GCGCGACGGTGGGTTCTAACCTGTTGCTTCC [GCGCGACCTAA_LTGcore_GG_RTGcore_GG] (site GCGCGACCTAA) (LTG core: GG, RTG core: GG) | 0.315
CGAGCCCCTTGGGTTCTAACCTGTTGCTGCA [CGAGCCCCTCA_LTGcore_CT_RTGcore_TG] (site CGAGCCCCTCA) (LTG core: CT, RTG core: TG) | 0.0283
TCTACCCCTTGGGTTCTAACCTGTTGCTGCT [TCTACCCCTCA_LTGcore_CT_RTGcore_AG] (site TCTACCCCTCA) (LTG core: CT, RTG core: AG) | 0.0324
AGGCCTCACTGGGTTCTAACCTGTTGCCTGT [AGGCCTCCTAG_LTGcore_AC_RTGcore_AC] (site AGGCCTCCTAG) (LTG core: AC, RTG core: AC) | 0.113
GGGAGCCGCTGGGTTCTAACCTGTTGCTGGC [GGGAGCCCTCA_LTGcore_GC_RTGcore_GC] (site GGGAGCCCTCA) (LTG core: GC, RTG core: GC) | 0.0416
TCGCGACTGTGGGTTCTAACCTGTTGCCGCA [TCGCGACCTCG_LTGcore_TG_RTGcore_TG] (site TCGCGACCTCG) (LTG core: TG, RTG core: TG) | 0.419
CGAGCCCCTTGGGTTCTAACCTGTTGCTGAC [CGAGCCCCTCA_LTGcore_CT_RTGcore_GT] (site CGAGCCCCTCA) (LTG core: CT, RTG core: GT) | 0.19
GGGCGTGACTGGGTTCTAACCTGTTGCCTAG [GGGCGTGCTAG_LTGcore_AC_RTGcore_CT] (site GGGCGTGCTAG) (LTG core: AC, RTG core: CT) | 0.437
TAAGAATCTTGGGTTCTAACCTGTTGCCTGG [TAAGAATCTAG_LTGcore_CT_RTGcore_CC] (site TAAGAATCTAG) (LTG core: CT, RTG core: CC) | 0.39
GAGTCCTATTGGGTTCTAACCTGTTGCCTAG [GAGTCCTCTAG_LTGcore_AT_RTGcore_CT] (site GAGTCCTCTAG) (LTG core: AT, RTG core: CT) | 0.0701
CGCGCCCAATGGGTTCTAACCTGTTGCGGTT [CGCGCCCCTCC_LTGcore_AA_RTGcore_AA] (site CGCGCCCCTCC) (LTG core: AA, RTG core: AA) | 0.134
GGGCGGACTTGGGTTCTAACCTGTTGCGGAA [GGGCGGACTCC_LTGcore_CT_RTGcore_TT] (site GGGCGGACTCC) (LTG core: CT, RTG core: TT) | 1.23
TGTATTCGGTGGGTTCTAACCTGTTGCCTAG [TGTATTCCTAG_LTGcore_GG_RTGcore_CT] (site TGTATTCCTAG) (LTG core: GG, RTG core: CT) | 0.0184
ATGCTTTCTTGGGTTCTAACCTGTTGCCTGC [ATGCTTTCTAG_LTGcore_CT_RTGcore_GC] (site ATGCTTTCTAG) (LTG core: CT, RTG core: GC) | 0.295
ATGCTTTCGTGGGTTCTAACCTGTTGCCTCG [ATGCTTTCTAG_LTGcore_CG_RTGcore_CG] (site ATGCTTTCTAG) (LTG core: CG, RTG core: CG) | 0.295
